For each entry below, report its TGI value.
Test system: SK-MEL-5 melanoma
EXPERIMENT_NOTES: NCI tumour cell line growth inhibition, 48 h

Can you look up the measured TGI of C#CCN(C)C(=O)N(CC#C)N=O for me?
> 100 µM

Can you look up the measured TGI of COc1cc(-c2nn(-c3ccc(NC(=O)c4cc(Cl)cc(Cl)c4)cc3)cc2-c2ccncc2)ccc1Cl for me?
> 100 µM

Can you look up the measured TGI of CC(C)(C)C(=O)OCc1nc2cc3c(cc2c(=O)[nH]1)CCC3=O for me?
> 100 µM

====

For each entry below, report its TGI value.
Tested on: MCF7 breast
EXPERIMENT_NOTES: NCI tumour cell line growth inhibition, 48 h

State its TGI on MCF7 breast: CN(C)CCNc1nc2c(no[n+]2[O-])c2ccccc12
> 100 µM

State its TGI on MCF7 breast: O=[N+]([O-])c1ccc2ncccc2c1CCc1c([N+](=O)[O-])ccc2ncccc12
> 100 µM

State its TGI on MCF7 breast: Cc1sc2ncn(Cc3ccc(Cl)c(Cl)c3)c(=O)c2c1C
> 100 µM

State its TGI on MCF7 breast: CN(CCO)/N=N/c1[nH]ncc1C(N)=O
> 100 µM

State its TGI on MCF7 breast: O=C(NCCCCOCC#Cc1ccccc1C#CCS(=O)(=O)c1ccccc1)c1cc2ccccc2[nH]1
> 26.1 µM

State its TGI on MCF7 breast: CC(=O)N1CCN(CCOc2ccc(C3CCN(C4=Nn5c(nnc5C(F)(F)F)CC4)CC3)cc2)CC1
> 100 µM

State its TGI on MCF7 breast: COc1cc2c(c(OC)c1OC)-c1ccc(SC)cc1C(=O)CC2
> 100 µM

State its TGI on MCF7 breast: CSC1=C(C(=O)Nc2ccccc2)C(N)=NC1=O
> 100 µM

State its TGI on MCF7 breast: Cc1cccc(NC2=NCCO2)c1Cl
> 100 µM

// data source = PubChem BioAssay (NCI)
